All values here come from ChEMBL document CHEMBL1158682.

test: Binding affinity to nicotinic receptor
assayMetric: IC50 (µM)

smilesStr: CN1C[C@@H]2C[C@H](C1)c1cccc(=O)n1C2
readingUnit: µM
measuredNumber: 0.05
//
smilesStr: O=c1cccc2n1C[C@H]1C[C@@H]2CN2CCCC[C@H]12
readingUnit: µM
measuredNumber: 2100

###

assay: Teratogenic activity in rat embryo assessed as incidence of major malformation at 20 ug/mL after 45 hrs relative to control; format: toxicity
assayMetric: Activity

molecule: COc1ccc2c(c1O)-c1c(O)c(OC)cc3c1[C@H](C2)[N+](C)(C)CC3 [MAGNOFLORINE]
result: Not Active

molecule: CN1C[C@@H]2C[C@H](C1)c1cccc(=O)n1C2
result: 29.8%

molecule: CN1CCCCC1CC(=O)c1ccc(O)cc1 (centres undefined) [THALICHROIDINE]
result: Not Active

molecule: O=c1cccc2n1C[C@H]1C[C@@H]2CN2CCCC[C@H]12 [ANAGYRINE]
result: Not Active

###

assay: Binding affinity to muscarinic acetylcholine receptor
pIC50: −log10 of the molar value.

smilesStr: O=c1cccc2n1C[C@H]1C[C@@H]2CN2CCCC[C@H]12
pIC50: 3.88
